Form field: growth (one value per entry).
test system: SNB-19 CNS; experiment: NCI-60 one-dose screen, 48 h (100 = growth as untreated, 0 = no growth, -100 = all killed); settings: 10 µM unless noted
Compounds without any hit were thinned out: in the full panel of roughly 83,000, 20% have a hit.
Answer in %, number only, no unit symbol.

Some solved cases for reference:
compound | measured_attribute | quantitative_result
COc1ccc2[nH]c3nc4cnccc4cc3c2c1 | growth | 105
COc1ccc(/C(=N\O)c2cc(C)c(OC)c(C)c2)cc1O | growth | 29.8
COc1ccc2nc3nc4ccc[nH]c4cc3c2c1 | growth | 105
Cc1c(C(=O)Nc2nc3ccccc3[nH]2)cnn1-c1ccccn1 | growth | 101

growth for `COc1cc(NCC(=O)Nc2cc(Nc3ccc(C)cc3)ncn2)c(Cl)c(OC)c1Cl` ?
95.9

Further, for `Cc1nccc2c3ccc(OCc4cn(-c5ccc(Br)cc5)nn4)cc3n(CC(C)C)c12` ?
59.6

Also check `C=CCn1c(SCC(=O)Nc2ccc(C(=O)/C=C/c3cc(OC)c(OC)c(OC)c3)cc2)nnc1-c1ccccc1`
86

Follow-up entry: COc1ccc(C(C)c2cc(OC)c(OC)c(OC)c2)cc1 (stereo not given)
34.1

Now consider `C#C[C@@]1(O)[C@@H](CO)O[C@@H](n2cc(I)c3c(N)ncnc32)[C@@H]1O` .
8.06

Consider next the compound COc1c(O)cc2oc3cc(O[C@@H]4OC(C)[C@@H](O)[C@H](O)C4O)c(CC=C(C)C)c(O)c3c(=O)c2c1CC=C(C)C (stereo not given in full) in the same way.
102
